Listed compounds paired with reported AC50
system: PKR R510Q (Homo sapiens, UniProt P30613, R510Q)
Sequence (P30613 whole entry R510Q): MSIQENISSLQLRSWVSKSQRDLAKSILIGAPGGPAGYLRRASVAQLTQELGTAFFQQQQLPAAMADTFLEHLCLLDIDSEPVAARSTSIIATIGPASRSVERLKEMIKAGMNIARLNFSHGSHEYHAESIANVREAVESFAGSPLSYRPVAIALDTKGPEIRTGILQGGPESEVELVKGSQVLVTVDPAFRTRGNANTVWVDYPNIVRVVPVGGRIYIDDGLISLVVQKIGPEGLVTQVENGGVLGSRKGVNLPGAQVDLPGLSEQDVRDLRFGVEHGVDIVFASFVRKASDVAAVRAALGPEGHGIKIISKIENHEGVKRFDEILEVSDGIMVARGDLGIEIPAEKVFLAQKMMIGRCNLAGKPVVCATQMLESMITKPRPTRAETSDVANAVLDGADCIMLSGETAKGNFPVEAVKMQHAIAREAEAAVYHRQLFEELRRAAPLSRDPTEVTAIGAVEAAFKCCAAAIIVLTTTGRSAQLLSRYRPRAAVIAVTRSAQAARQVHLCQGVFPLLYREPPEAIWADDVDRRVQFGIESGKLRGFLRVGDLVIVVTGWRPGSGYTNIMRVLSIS
experimentDescription: PKR mutant assay, PKR R510Q AC50
Assay type: biochemical
measurementSetup: mutant PKR R510Q enzyme

Sample answers from the record:
O=C(c1ccc(NS(=O)(=O)c2cccc3ncccc23)cc1)N1CC(O)(c2cccc(C(F)(F)F)c2)C1    1.01 to 10 µM
CC(C)C1(O)CN(C(=O)c2ccc(NS(=O)(=O)c3cccc4cccnc34)cc2)C1    > 10 µM
O=C(c1ccc(NS(=O)(=O)c2cccc3cccnc23)cc1)N1CC(O)(c2ccccc2F)C1    1.01 to 10 µM
O=C(c1ccc(NS(=O)(=O)c2cccc3cccnc23)cc1)N1CC(O)(c2ccccc2OC(F)(F)F)C1    0.101 to 1 µM
O=C(c1ccc(NS(=O)(=O)c2cccc3cccnc23)cc1)N1CC(O)(c2ccc(F)cc2)C1    1.01 to 10 µM
O=C(c1ccc(NS(=O)(=O)c2cccc3cccnc23)cc1)N1CC(O)(c2cccc(Cl)c2)C1    0.101 to 1 µM

Summary for this compound, `Cc1cccc(CC2(O)CN(C(=O)c3ccc(NS(=O)(=O)c4cccc5cccnc45)cc3)C2)n1` : AC50 is > 10 µM

Summary for this compound, `O=C(c1ccc(NS(=O)(=O)c2cccc3cccnc23)cc1)N1CC(O)(CCCO)C1` : AC50 is > 10 µM

Summary for this compound, `O=C(c1ccc(NS(=O)(=O)c2ccccc2Cl)cc1)N1CC(O)(Cc2ccccc2)C1` : AC50 is > 10 µM

---

system: PKR R510Q (Homo sapiens, UniProt P30613, R510Q)
experimentDescription: PKR mutant assay, PKR R510Q AC50
Format: biochemical
measurementSetup: mutant PKR R510Q enzyme
metricName: AC50

Sample answers from the record:
CC(O)CC1(O)CN(C(=O)c2ccc(NS(=O)(=O)c3cccc4cccnc34)cc2)C1 (stereo not shown) [Compound 41]    > 10 µM
O=C(c1ccc(NS(=O)(=O)c2cccc3cccnc23)cc1)N1CC(O)(c2cccnc2F)C1 [Compound 18]    1.01 to 10 µM
O=C(c1ccc(NS(=O)(=O)c2cccc3cccnc23)cc1)N1CC(O)(Cc2ccccn2)C1 [Compound 55]    1.01 to 10 µM
CCCCC1(O)CN(C(=O)c2ccc(NS(=O)(=O)c3cccc4cccnc34)cc2)C1 [Compound 16]    0.101 to 1 µM
Cc1cc(F)ccc1C1(O)CN(C(=O)c2ccc(NS(=O)(=O)c3cccc4cccnc34)cc2)C1 [Compound 12]    0.101 to 1 µM
O=C(c1ccc(NS(=O)(=O)c2cccc3cccnc23)c(F)c1)N1CC(O)(Cc2ccccc2)C1 [Compound 46]    1.01 to 10 µM
O=C(c1ccc(NS(=O)(=O)c2cccc3nonc23)cc1)N1CC(O)(Cc2ccccc2)C1 [Compound 69]    > 10 µM
CCc1ccccc1C1(O)CN(C(=O)c2ccc(NS(=O)(=O)c3cccc4cccnc34)cc2)C1 [Compound 13]    0.101 to 1 µM
COc1ccccc1C1(O)CN(C(=O)c2ccc(NS(=O)(=O)c3cccc4cccnc34)cc2)C1 [Compound 2]    0.101 to 1 µM
CC(C)(C)C1(O)CN(C(=O)c2ccc(NS(=O)(=O)c3cccc4cccnc34)cc2)C1 [Compound 31]    > 10 µM

Summary for this compound, O=C(c1ccc(NS(=O)(=O)c2cccc3cccnc23)cc1)N1CC(O)(c2cccc(C(F)(F)F)c2)C1 [Compound 9] : AC50 is < 0.1 µM

Summary for this compound, O=C(c1ccc(NS(=O)(=O)c2cccc3cccnc23)cc1)N1CC(O)(c2cccc(F)c2)C1 [Compound 4] : AC50 is 1.01 to 10 µM

Summary for this compound, O=C(c1ccc(NS(=O)(=O)c2ccccc2C(F)(F)F)cc1)N1CC(O)(Cc2ccccc2)C1 [Compound 51] : AC50 is > 10 µM

Summary for this compound, O=C(c1ccc(NS(=O)(=O)c2cccc3cccnc23)cc1)N1CC(O)(c2cccnc2C(F)(F)F)C1 [Compound 17] : AC50 is 0.101 to 1 µM

Summary for this compound, Cc1ccccc1C1(O)CN(C(=O)c2ccc(NS(=O)(=O)c3cccc4cccnc34)cc2)C1 [Compound 15] : AC50 is 0.101 to 1 µM

Summary for this compound, O=C(c1ccc(NS(=O)(=O)c2cccc3cccnc23)cc1)N1CC(O)(c2ccccc2Cl)C1 [Compound 5] : AC50 is 0.101 to 1 µM

---

system: PKR WT (Homo sapiens)
Sequence (P30613 whole entry): as the sequence (P30613 whole entry R510Q) above, with Q510R counted along it
experimentDescription: PKR WT cell based assay AC50
measurementSetup: wild type PKR
metricName: AC50

COc1ncccc1C1(O)CN(C(=O)c2ccc(NS(=O)(=O)c3cccc4cccnc34)cc2)C1    101 to 1000 nM
Cc1cc(F)ccc1C1(O)CN(C(=O)c2ccc(NS(=O)(=O)c3cccc4cccnc34)cc2)C1    101 to 1000 nM
O=C(c1ccc(NS(=O)(=O)c2cccc3cccnc23)cc1)N1CC(O)(c2cccc(Cl)c2)C1    101 to 1000 nM
Cc1ncccc1C1(O)CN(C(=O)c2ccc(NS(=O)(=O)c3cccc4cccnc34)cc2)C1    101 to 1000 nM
O=C(c1ccc(NS(=O)(=O)c2cccc3cccnc23)cc1)N1CC(O)(c2cccc(C(F)(F)F)c2)C1    < 100 nM

Summary for this compound, `O=C(c1ccc(NS(=O)(=O)c2cccc3cccnc23)cc1)N1CC(O)(c2cccc(F)c2)C1` : AC50 is < 100 nM

Summary for this compound, `O=C(c1ccc(NS(=O)(=O)c2cccc3c2OCCO3)cc1)N1CC(O)(Cc2ccccc2)C1` : AC50 is < 100 nM

Summary for this compound, `Cc1ccccc1C1(O)CN(C(=O)c2ccc(NS(=O)(=O)c3cccc4cccnc34)cc2)C1` : AC50 is 101 to 1000 nM

---

system: PKR R532W (Homo sapiens, UniProt P30613, R532W)
Sequence (P30613 whole entry R532W): as the sequence (P30613 whole entry R510Q) above, with Q510R, R532W counted along it
experimentDescription: PKR mutant assay, PKR R532W AC50
Format: biochemical
measurementSetup: mutant PKR R532W enzyme
Listed compounds paired with reported AC50

O=C(c1ccc(NS(=O)(=O)c2cccc(Cl)c2Cl)cc1)N1CC(O)(Cc2ccccc2)C1 [Compound 52]    1010 to 10000 nM
O=C(c1ccc(NS(=O)(=O)c2ccccc2Cl)cc1)N1CC(O)(Cc2ccccc2)C1 [Compound 49]    1010 to 10000 nM
COc1ncccc1C1(O)CN(C(=O)c2ccc(NS(=O)(=O)c3cccc4cccnc34)cc2)C1 [Compound 20]    101 to 1000 nM
Cc1cccc(CC2(O)CN(C(=O)c3ccc(NS(=O)(=O)c4cccc5cccnc45)cc3)C2)n1 [Compound 56]    101 to 1000 nM

Attention now shifts to the item below.
Summary for this compound, O=C(c1ccc(NS(=O)(=O)c2cccc3cnccc23)cc1)N1CC(O)(Cc2ccccc2)C1 [Compound 48] : AC50 is > 10000 nM

---

system: PKR R510Q (Homo sapiens, UniProt P30613, R510Q)
experimentDescription: PKR mutant assay, PKR R510Q AC50
Format: biochemical
measurementSetup: mutant PKR R510Q enzyme
metricName: AC50

COc1ncccc1C1(O)CN(C(=O)c2ccc(NS(=O)(=O)c3cccc4cccnc34)cc2)C1 [Compound 20]    101 to 1000 nM
O=C(c1ccc(NS(=O)(=O)c2cccc3cccnc23)cc1)N1CC(O)(c2cccc(OC(F)(F)F)c2)C1 [Compound 10]    101 to 1000 nM
Cc1cccnc1C1(O)CN(C(=O)c2ccc(NS(=O)(=O)c3cccc4cccnc34)cc2)C1 [Compound 59]    > 10000 nM
O=C(c1ccc(NS(=O)(=O)c2cccc3cccnc23)cc1)N1CC(O)(c2ncccc2Cl)C1 [Compound 23]    > 10000 nM
O=C(c1ccc(NS(=O)(=O)c2cccc3cccnc23)cc1)N1CC(O)(c2ncccc2F)C1 [Compound 22]    1010 to 10000 nM

The reported PKR R510Q (Homo sapiens, UniProt P30613, R510Q) AC50 of O=C(c1ccc(NS(=O)(=O)c2cccc3cccnc23)cc1)N1CC(O)(c2ccccc2C(F)(F)F)C1 [Compound 6] is 101 to 1000 nM

The reported PKR R510Q (Homo sapiens, UniProt P30613, R510Q) AC50 of COc1cccc(C2(O)CN(C(=O)c3ccc(NS(=O)(=O)c4cccc5cccnc45)cc3)C2)c1 [Compound 61] is 101 to 1000 nM

The reported PKR R510Q (Homo sapiens, UniProt P30613, R510Q) AC50 of Cn1c(=O)oc2cc(S(=O)(=O)Nc3ccc(C(=O)N4CC(O)(Cc5ccccc5)C4)cc3)ccc21 [Compound 70] is > 10000 nM

The reported PKR R510Q (Homo sapiens, UniProt P30613, R510Q) AC50 of COc1cccnc1C1(O)CN(C(=O)c2ccc(NS(=O)(=O)c3cccc4cccnc34)cc2)C1 [Compound 21] is 1010 to 10000 nM

The reported PKR R510Q (Homo sapiens, UniProt P30613, R510Q) AC50 of O=C(c1ccc(NS(=O)(=O)c2cccc3cccnc23)cc1)N1CC(O)(CC2CC2)C1 [Compound 37] is > 10000 nM

The reported PKR R510Q (Homo sapiens, UniProt P30613, R510Q) AC50 of O=C(c1ccc(NS(=O)(=O)c2cccc3cnccc23)cc1)N1CC(O)(c2cccc(C(F)(F)F)c2)C1 [Compound 43] is > 10000 nM
